// provenance: patent US20050020492A1

Each entry below lists one item and its recorded Activation %, aequorin bioluminescence value.
- systemUnderTest: human MCH-2R (human, UniProt Q969V1 1-340)
- Sequence (Q969V1 whole entry): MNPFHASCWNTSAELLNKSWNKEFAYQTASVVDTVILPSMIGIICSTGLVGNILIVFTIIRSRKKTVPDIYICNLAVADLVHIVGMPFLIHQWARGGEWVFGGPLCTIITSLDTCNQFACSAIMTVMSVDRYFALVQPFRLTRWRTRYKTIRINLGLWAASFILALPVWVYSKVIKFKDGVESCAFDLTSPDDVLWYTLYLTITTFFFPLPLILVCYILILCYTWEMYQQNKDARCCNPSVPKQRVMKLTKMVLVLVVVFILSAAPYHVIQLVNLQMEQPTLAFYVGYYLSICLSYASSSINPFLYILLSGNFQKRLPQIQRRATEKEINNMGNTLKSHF
- assayComment: cell-based or functional assay
Positions of bridges follow the written chain, without caps; N, C: chain ends. Non-standard residues stand in square brackets, D forms with d. Cha = N[C@@H](CC1CCCCC1)C(=O)O
metric: Activation %, aequorin bioluminescence (%)

* Ac-RCMLLRVYRPC-NH2 (disulfide 2-11 (inferred)) [SEQ. ID. NO. 17 (Leu^10 analog of Ac-hMCH(6-16)-NH2)] | 74
* Ac-RCML[Cha]RVYRPC-NH2 (disulfide 2-11) [SEQ. ID. NO. 19 (Cha^10 analog of Ac-hMCH(6-16)-NH2)] | 74
* Ac-RCMLSRVYRPC-NH2 (disulfide 2-11 (inferred), also called Ser^10 peptide) [SEQ. ID. NO. 26 (Ser^10 analog of Ac-hMCH(6-16)-NH2)] | 87
* RCMLXRVYRPC (HELM PEPTIDE1{[ac].R.C.M.L.[O=C([C@H](Cc1ccc2ccccc2c1)N[*:1])[*:2]].R.V.Y.R.P.C.[am]}$PEPTIDE1,PEPTIDE1,3:R3-12:R3$$$V2.0; SMILES CSCC[C@@H]1NC(=O)[C@@H](NC(=O)[C@H](CCCNC(=N)N)NC(C)=O)CSSC[C@@H](C(N)=O)NC(=O)[C@@H]2CCCN2C(=O)[C@H](CCCNC(=N)N)NC(=O)[C@H](Cc2ccc(O)cc2)NC(=O)[C@H](C(C)C)NC(=O)[C@H](CCCNC(=N)N)NC(=O)[C@H](Cc2ccc3ccccc3c2)NC(=O)[C@H](CC(C)C)NC1=O) [SEQ. ID. NO. 21 (Nal(2′)^10 analog of Ac-hMCH(6-16)-NH2)] | 105
